Reference source for all entries: patent US9562046B2

- measurementNotes: Plasma pharmacokinetics after intravenous injection in NMRI mice
- Format: in vivo
- experimentalContext: mouse, plasma, 16 mg/kg, NMRI mice, read-out: elimination half-life
measuredProperty: half-life

1) C/C(=N/Nc1ccc2c(n1)[nH]c1c(C)cccc12)c1ccccn1    4 to 5 h

* * *

- measurementNotes: Intravenous tolerability / systemic toxicity in NMRI mice
- Type: in vivo
- experimentalContext: mouse, in vivo, iv, injected intravenously, read-out: maximally tolerated dose (MTD)
measuredProperty: MTD (mg/kg)

1. C/C(=N/Nc1ccc2c(n1)[nH]c1c(C)cccc12)c1ccccn1 [compound 11]    16

* * *

- measurementNotes: Plasma pharmacokinetics after intravenous injection in NMRI mice
- Format: in vivo
- experimentalContext: mouse, plasma, at MTD of 16 mg/kg, NMRI mice, read-out: initial plasma concentration
measuredProperty: C0

1. C/C(=N/Nc1ccc2c(n1)[nH]c1c(C)cccc12)c1ccccn1    ~100 µM
